conditions: 298.15 K; 101.33 kPa; Liquid; Sing-around technique in a fixed-path interferometer
value-kind: speed of sound (m/s)
State the answer as a number, implicitly in m/s.

Query: Return speed of sound (reported value) for this compound: Cc1ccccc1
Response: 1306.3

Query: Return speed of sound (reported value) for this compound: COC(C)=O [methyl ethanoate]
Response: 1154

Query: Return speed of sound (reported value) for this compound: CCCCCCC(=O)OC [methyl heptanoate]
Response: 1254.6

Query: Return speed of sound (reported value) for this compound: CCCCOC(C)=O [butyl ethanoate]
Response: 1193.1
